The following sequences are shown together with reported apparent KD of K4 kissing-loop reporter values.
- Test system: K4 kissing-loop RNA reporter;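 also: bound reporter read as fluorescence of individual clusters on recovered sequencing chips by microscopy, with normalized cluster intensities fitted with a binding model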
- test_method_notes: apparent KD of K4 kissing-loop reporter; higher = weaker reporter binding
- condition_info: Eterna round: R107; input ligand: theophylline 20 uM
result_type: apparent KD of K4 kissing-loop reporter

1) AUCUGUCAAGGACAACAUUACUGAGGUGAUACCAGCAUCGAAAGAUGCCCUUGGCAGCACCAACUUGCAGUGAUGUUGCAAGUAA [BrourdMod 10 - Jieux - Exclusion - Theophylline A] :: 393 nM
2) AGUAGAGCAUCAGAUACCAGACAGAACUGAUGGUAAGGAGUGAUGUUCCUUAAUCAGCUUGUCCCUUGGCAGCUGAUAGUAGUCA [#14 K4 Theophylline B Same State] :: 348 nM
3) GCUAUGGUAGGAAGGAGCGCUUAUUCAUUAAUAAGAGUGAUGUUCGAUAAUGAAUAUUUAUAGCAGGUAGGUCGCCUACUAUAGC [Arginine B K4 2] :: 206 nM
4) UGUUGAGUGAUGUUCGAUGUAGUUCAUUCAGAGGAUAUAGGGUGGGCUAGAAGGCUGAAAAGUGCUUCGAGUGAUGUUCGAAGAU [Exclusion FMN A GF 7] :: 89.5 nM
5) AGAGAUAUAUGAGGAUAUGAGUUAGUUAAUGAGUGAGUUUUAGUGUUGUUUGGUUAGUGAUGUUAUUUAGAAGGCGUGAGUGAUG [ttytmullin] :: 106 nM
6) UGUACCGAGUUAGGAUAUGUCGUCGAAAGACGAAAUGGAGUGAUGUUCCUUAAACUGCGAAAGCAGACAGAAGGGACUUGGUACU [FmnBS 29 U11] :: 493 nM
7) CGCGCGCGCGCGCGCGCGCGCGCGAAUGAUACCAGUAUAUAAGAAUACCCUUGGCAGCAUAAGAAAGAUAUAGUGAUGUUGUAUA [SSTheophA.B] :: 422 nM
8) GGUAGCAUGGCGGCCGCCACUCGGACGACAUAGCACAUGUCGACCAGUGAUGUUGGUUCAAACACGAGGACCGGGCCAUGCUACC :: 629 nM
9) GGAUUUGAGUGAUGUUUAAAACGAGUGUCCAAGGAUAUUGCCCAAACAAGAAGGUGGGCAUGCUUUUGCGAUAAUCAACGGAGAC [theeternabot_exclusion_KL_FMN_A_9] :: 606 nM
10) AUUUAGACGAGUGAUGUUCGUGUUAUUACAGAGGAUAUGCGUAAUUGCAGAAGGCUGUAUUUAUAUAUGUUAUGUGGUUUUAAAA [whbob_Ex_FMNA__2th185] :: 93.8 nM
11) UGGCGUUGAACCGCCGAAUCGCUGUGAGAAGGAGCGGUAAAAUUGCCAGGUAGGUCGCUCACAGCUUCACAGUGAUGUUGUGGAA [Enxeisen] :: 212 nM
12) AUAGGAGUGAUGUUCCUUAGUUUCUCCGAUACCAGUAUGGAAACAUACCCUUGGCAGCGGGAGACCGCUGAUUAGGAAACUAGUC [Theophylline A K4 8] :: 251 nM

Values were extracted from the supplement of paper PMC9170038.
